- test_parameters: buffer; pH 7.4; 6.0 h; 150.0 µM

compound | comparison_operator | solubility kinetic / µg/mL
Cc1cccc(OCC(=O)Nc2ccc3nc(Nc4cccc(Cl)c4)cc(C)c3c2)c1 | < | 1
COc1ccc(S(=O)(=O)Nc2cnccc2C(=O)Nc2nc(-c3ccccc3)cs2)cc1 | = | 54.1
COc1cccc(CNc2ccc([S+](=O)([O-])Nc3cc4ccccc4s3)cc2)c1O | < | 1
O=c1c(-c2cccs2)ccc2n1C[C@H]1C[C@@H]2CN(C2CCOCC2)C1 | > | 79
O=C(c1ccc2ncccc2c1)N1CCc2c(nc3cc[nH]n3c2=O)C1 | = | 11.2
Nc1cc(CN2C(=O)c3ccccc3C2=O)cc(Cl)c1O | = | 20.8
CN1C(=O)c2ccccc2[S@](=O)c2ccc(C(=O)NCc3ccc(Br)cc3)cc21 | < | 1
O=C(c1cnc(N2CCCCC2)c2ccccc12)N1CCN(c2ccc(Cl)cc2)CC1 | < | 1
COc1ccc(-c2ccc3nc(-c4cc(F)cc(F)c4F)oc3c2)c(OC)c1OC | < | 1
CC(C)(O)/C=C\C(=O)[C@](C)(O)[C@H]1[C@H](O)C[C@]2(C)[C@@H]3CC=C4[C@@H](C=C(O)C(=O)C4(C)C)[C@]3(C)C(=O)C[C@@]12C | > | 51
COc1cc2nccc(Oc3ccc(NC(=O)Nc4cc(C)on4)c(Cl)c3)c2cc1OC | < | 1
O=C(O)CCNc1cc(N2CCc3ccccc3CC2)nc(-c2cccnc2)n1 | > | 58
Cc1cc(-c2nc(Nc3ccc(F)c(F)c3)c3ccccc3n2)ccn1 | < | 1
CCCN1CNc2c(c(=O)[nH]c(=S)n2Cc2ccc(OC)c(OC)c2)C1 | > | 56
Cc1cccc(S(=O)(=O)c2cn(Cc3ccccc3)c3cc(N4CCCCC4C)c(F)cc3c2=O)c1 (stereo unspecified) | < | 1
Cc1cccc(NC(=S)N2CCN(c3cccc(C(F)(F)F)c3)CC2)c1 | = | 1.59
CCN1CCc2c(sc(NC(=O)Nc3ccc(Cl)c(Cl)c3)c2C(N)=O)C1 | < | 1
Cc1cc(C)nc(NC(=S)N2CCN(c3ccc4nsnc4c3)CC2)c1 | = | 27.7
CN(C)CC(=O)NC1CCCc2c1cnn2-c1ccc(F)cc1F (stereo unspecified) | > | 33
NC(=O)C1CCN(c2nc(-c3ccc([N+](=O)[O-])cc3)cs2)CC1 | = | 1.7
O=S(=O)(Nc1nccs1)c1ccc(Nc2nc(-c3ccc(F)cc3)cs2)cc1 | = | 2.36
O=C(NCc1cccc(C(F)(F)F)c1)c1ccc(CN2CCCCC2)cc1 | = | 46.6
CCOc1ccc(CCNC(=O)c2ccnn2Cc2cccc(C)c2)cc1OCC | = | 2.88
Cc1nsc(N)c1C(=O)N(C)CCOc1ccccc1Cl | > | 48
Cc1ccc(S(=O)(=O)Nc2cnccc2C(=O)Nc2nc(-c3ccc(C)c(C)c3)cs2)cc1 | < | 1
Cc1ccc(-c2ccnc(N3CCC(C(N)=O)CC3)n2)cc1 | = | 2.67
CCOc1ccc(S(=O)(=O)NCc2cccnc2)cc1NC(=O)c1ccccc1F | < | 1
CC(C)c1nc2oc3c(NCCN(C)C)ncnc3c2c2c1COC(C)(C)C2 | > | 57
O=C1CCCC2=C1C(c1[nH]ncc1Cl)N=C(Nc1nc3ccc(Cl)cc3o1)N2 (stereo unspecified) | = | 1
CC(C)c1ccccc1-c1ncc(F)c(NCc2ccc(-n3ccnn3)cc2)n1 | = | 2.13
COCCNc1ncc(-c2cccc(O)c2)c2c1OCC2 | > | 85
O=c1cc(-c2ccccc2)oc2cc(O)cc(O)c12 | < | 1
Cc1ccc(NS(=O)(=O)c2ccc3c(c2)NC(=O)CO3)cc1C | = | 7.82
CC(C)(C)OC(=O)N[C@@H](Cc1ccc(O[S+](=O)([O-])c2cccc3cnccc23)cc1)C(=O)Nc1ccc(-c2ccccc2)cc1 | < | 1
COc1ccc(-n2c(C)cc(C3=NNC(=NC4CC4)SC3)c2C)cc1 | = | 14
CCc1ccc2oc(=O)cc(CN3CCN(c4ccccc4F)CC3)c2c1 | < | 1
NC(=O)C1CCN(c2ncc(-c3ccc(Br)cc3)s2)CC1 | = | 1.62
CNC(=O)C1CCN(C(=O)c2ccc(-c3ncc4cnc(-c5ccccc5)cn34)cc2)CC1 | = | 40.8
CCCc1c(CC)c(=N)c2ccccc2n1C.I | > | 34
O=[S+]([O-])(Nc1ccc(C2CCNCC2)cc1)c1ccc(NCc2ccc(Cl)cc2O)cc1 | = | 23.9
O=C(NCC1CCOCC1)C1CC(=O)N(c2n[nH]c3cc(Br)ccc23)C1 (stereo unspecified) | = | 25.3

###

- test_parameters: buffer; pH 7.4; 6.0 h; 150.0 µM
Non-standard residues stand in square brackets, D forms with d. Residues, ends and D or L forms follow the SMILES beside them. ξ: configuration not given here. ξLac(3-iPr) = CC(C)CC(O)C(=O)O; NMeV = CN[CH](C(=O)O)C(C)C; NMeA = CN[CH](C)C(=O)O; βAla = NCCC(=O)O
Attribute: solubility kinetic

compound | solubility kinetic
CC(=O)c1c(C)[nH]c(C(=O)Nc2cccc([S+](=O)([O-])Nc3ccccc3)c2)c1C | 2.16 µg/mL
CC(C)c1ccccc1-c1ncc(F)c(NCC2CCN(c3cccnc3)CC2)n1 | 9.06 µg/mL
O=C(Nc1cccc(Cc2ccccc2)c1)c1ccc(-c2cccc([N+](=O)[O-])c2)o1 | < 1 µg/mL
COc1ccc(C2C=C(c3ccc(Cl)cc3)Nc3nc(-c4ccc(Cl)cc4)nn32)cc1 (stereo not drawn) | < 1 µg/mL
Cn1c2cc(S(C)=O)sc2c2cnn(Cc3cccc(N)c3)c(=O)c21 (stereo not drawn) | > 55 µg/mL
COC(=O)c1ccc2c(C(=Nc3ccc(N(C)C(=O)CN4CCN(C)CC4)cc3)c3ccccc3)c(O)[nH]c2c1 | < 1 µg/mL
CCC(C)C1NC(=O)C2CCCN2C(=O)C(CC(C)C)OC(=O)CCNC(=O)C(C)N(C)C(=O)C(C(C)C)N(C)C1=O (stereo not drawn) (cyclo([ξLac(3-iPr)]PI[NMeV][NMeA][βAla]); configuration not given here) | 2.68 µg/mL
Cc1cc(C)nc(N2CCCC(C(=O)NCCc3ccc(F)cc3)C2)n1 (stereo not drawn) | 2.77 µg/mL

###

- test_parameters: buffer; pH 7.4; 6.0 h; 150.0 µM
endpoint_label: solubility kinetic (µg/mL)

molecule | endpoint_label | unit_of_measure | comparison_operator | test_result
COc1cccc(CNc2ccc(S(=O)(=O)Nc3cc(C)on3)cc2)c1O | solubility kinetic | µg/mL | > | 58
CN1CCN(Cc2ccc(NC(=O)Cc3ccc(Oc4cc(NC(=O)C5CC5)ncn4)cc3)cc2C(F)(F)F)CC1 | solubility kinetic | µg/mL | = | 57.3
CCOc1ccc(CCNC(=O)c2cc3sccc3n2CCN(C)C)cc1OCC | solubility kinetic | µg/mL | > | 63
COc1cc(-c2nc(Nc3ccc(F)c(F)c3)c3ccccc3n2)c(F)cn1 | solubility kinetic | µg/mL | < | 1
CC(C)c1ccccc1-c1ncc(F)c(NC(C)(C)c2ccc(-n3ccnn3)cc2)n1 | solubility kinetic | µg/mL | = | 1.14
CCC(CC)c1cc([C@H]2CN3CC[C@H]2C[C@@H]3CNS(=O)(=O)c2cccs2)nc(-c2ccncc2)n1 | solubility kinetic | µg/mL | = | 52.2
CCOC(=O)c1[nH]c(C)c(CCC(=O)N2CCN(c3cc(Cl)ccc3C)CC2)c1C | solubility kinetic | µg/mL | = | 2.74
CCCOC(c1cc2nccc(C(=O)O)c2[nH]1)c1ccccc1Cl (stereo not given) | solubility kinetic | µg/mL | > | 51
O=C1c2ccccc2-n2c1nc1ccccc1c2=O | solubility kinetic | µg/mL | = | 8.45
Cc1ccc(NS(=O)(=O)c2cccc(C(=O)Nc3nc(-c4ccccc4)cs3)c2)cc1 | solubility kinetic | µg/mL | < | 1

###

- test_parameters: buffer; pH 7.4; 6.0 h; 150.0 µM
endpoint_label: solubility kinetic (µg/mL)

compound | endpoint_label | comparison_operator | test_result
COc1ccc(-n2nc(C3CCN(C(=O)Cc4ccc(F)cc4)CC3)[nH]c2=O)cc1 | solubility kinetic | > | 61
Cc1ccnc(NC(=S)N2CCN(c3cc(F)cc(Cl)c3)CC2)c1 | solubility kinetic | < | 1
CCOc1ccc(CCNC(=O)c2cc3sccc3n2C)cc1OCC | solubility kinetic | = | 8.05
COc1ccccc1-c1csc(N2CCC(C(N)=O)CC2)n1 | solubility kinetic | = | 3.08
CC(C)(C)OC(=O)N[C@@H](Cc1ccc(O[S+](=O)([O-])c2cccc3cnccc23)cc1)C(=O)N1CCN(Cc2ccccc2)CC1 | solubility kinetic | < | 1
CC1=C(C(=O)Nc2nncs2)C(c2[nH]ncc2Cl)N=C(Nc2nc3ccccc3o2)N1 (centres undefined) | solubility kinetic | = | 34.6
Cc1ccccc1C(=O)N1CCc2cc(-c3nc(NC(=O)CC4CCCCC4)sc3C)ccc21 | solubility kinetic | < | 1
CC(=O)c1c(C)[nH]c(C(=O)Nc2cccc([S+](=O)([O-])Nc3c(C)cccc3C)c2)c1C | solubility kinetic | < | 1
Cc1ccc(NS(=O)(=O)c2c(C)[nH]c(C)c2C(=O)N2CCCC2)cc1Cl | solubility kinetic | = | 48
